Test system: THP-1 macrophages
experimental_details: Effect of compounds on host cell viability (MTT)
Assay type: cell-based
test_conditions: THP-1 macrophages, 72-hour incubation, MTT assay; read-out: 72 hr viability of THP-1 macrophages LC50
Lab note - cut at 30 µM for CC50: Condition met if strictly below, Condition not met if not.

Prompt line: Criterion: CC50 strictly below 30 µM. Is it met by N[C@H]1CCN(c2ccc(-n3nc(C(F)(F)F)cc3-c3ccc(-c4ccc(C(F)(F)F)cc4)cc3)cc2)C1 ?
Response line: Condition met

Prompt line: Criterion: CC50 strictly below 30 µM. Is it met by N[C@@H]1CCN(c2ccc(-n3nc(C(F)(F)F)cc3-c3ccc(-c4ccc(C(F)(F)F)cc4)cc3)cc2)C1 ?
Response line: Condition met

Prompt line: Criterion: CC50 strictly below 30 µM. Is it met by Oc1ccc(CNC2CCN(c3ccc(-n4nc(C(F)(F)F)cc4C4CCCCC4)cc3)CC2)cc1 ?
Response line: Condition met

Prompt line: Criterion: CC50 strictly below 30 µM. Is it met by NCC(=O)Nc1ccc(-n2cc(C(F)(F)F)nc2-c2ccc(-c3ccccc3)cc2)cc1 ?
Response line: Condition not met

Prompt line: Criterion: CC50 strictly below 30 µM. Is it met by FC(F)(F)c1ccc(-c2nc(C(F)(F)F)cn2-c2ccc(NC3CCNCC3)cc2)cc1 ?
Response line: Condition met

Prompt line: Criterion: CC50 strictly below 30 µM. Is it met by CC(C)(C)OC(=O)NC1CCN(c2ccc(-n3nncc3-c3ccc(C(F)(F)F)cc3)cc2)C1 (centres unmarked) ?
Response line: Condition not met

Prompt line: Criterion: CC50 strictly below 30 µM. Is it met by FC(F)(F)c1ccc(-c2ccc(-c3cc(C(F)(F)F)nn3-c3ccc(NC4CCNC4)cc3)cc2)cc1 (centres unmarked) ?
Response line: Condition met

Prompt line: Criterion: CC50 strictly below 30 µM. Is it met by O=C(Nc1ccc(-n2cc(C(F)(F)F)nc2-c2ccc(-c3ccccc3)cc2)cc1)C1CCN(Cc2ccccc2)C1 (centres unmarked) ?
Response line: Condition met

Prompt line: Criterion: CC50 strictly below 30 µM. Is it met by Oc1ccccc1CN1CCC(Nc2ccc(-n3nc(C(F)(F)F)cc3-c3ccc(-c4ccc(C(F)(F)F)cc4)cc3)cc2)C1 (centres unmarked) ?
Response line: Condition not met

Prompt line: Criterion: CC50 strictly below 30 µM. Is it met by Nc1ccc(CNC2CCN(c3ccc(-n4nc(C(F)(F)F)cc4-c4ccc(-c5ccc(C(F)(F)F)cc5)cc4)cc3)C2)cc1 (centres unmarked) ?
Response line: Condition met

Prompt line: Criterion: CC50 strictly below 30 µM. Is it met by CC(C)(C)C#Cc1ccc(-c2cc(C(F)(F)F)nn2-c2ccc(N3CCNCC3)cc2)cc1.Cl ?
Response line: Condition met

---

So I've got a bunch of molecules here, and I need their CC50 values.
Tested on: THP-1 macrophages
experimental_details: Effect of compounds on host cell viability (MTT)
Assay type: cell-based
test_conditions: read-out: 24h LC50; THP1 macrophages, 24-hour incubation, MTT assay (Supplemental Table 2)
Use µM as the unit, but write only the number.

Prompt line: Quote CC50 reported for O=C(C1CCCCC1)N1CC(Nc2ccc(-n3nc(C(F)(F)F)cc3-c3ccc(-c4ccc(C(F)(F)F)cc4)cc3)cc2)C1 [Compound 71] please.
Response line: 8.4

Prompt line: Quote CC50 reported for NCCCOc1ccc(CN2CCC(Oc3ccc(-n4nc(C(F)(F)F)cc4C4CCCCC4)cc3)CC2)cc1 [Compound 429] please.
Response line: 12.1

Prompt line: Quote CC50 reported for FC(F)(F)c1ccc(-c2cnnn2-c2ccc(NC3CCNCC3)cc2)cc1 [Compound 434] please.
Response line: 24.6

Prompt line: Quote CC50 reported for NCC(=O)Nc1ccc(-n2nc(C(F)(F)F)cc2C2CCCCC2)cc1 [Compound 341] please.
Response line: 26.5

Origin of values: paper doi:10.1101/2025.11.04.686469
